# Test system: M14 melanoma
# ASSAY_COMMENT: NCI-60 one-dose screen, 48 h (100 = growth as untreated, 0 = no growth, -100 = all killed)
# TEST_SETTINGS: 10 µM unless noted
About 83,000 compounds went through this panel and 20% of them were active in at least one assay; those are over-represented in the sample as a whole.
PROPERTY_NAME: growth (%)
Express the result in % but write the number alone.

Answered examples (4):
# COMPOUND, SYSTEM_UNDER_TEST, PROPERTY_NAME, DISPLAY_UNIT, RESULT
rows = [
    ("CCC(C)(C)c1ccc(Nc2ccc(Nc3ccc(C(C)(C)CC)cc3)cc2)cc1", "M14 melanoma", "growth", "%", 92.5),
    ("CCCCCCCCCCCCCCCCCCOc1ccccc1CC(=O)NCC[N+](C)(C)C", "M14 melanoma", "growth", "%", 33.7),
    ("COc1nc(/C=C\\Nc2ccc3c(c2)OCCOCCOCCOCCO3)nc(OC)n1", "M14 melanoma", "growth", "%", 96.4),
    ("COc1ccc(/C=C2\\CN(C(=O)C(Cl)Cl)C/C(=C\\c3ccc(OC)c(OC)c3)C2=O)cc1OC", "M14 melanoma", "growth", "%", -72.6),
]

Sure, the documented growth for `CCCCCCCCn1ccc2cc(NC(=O)CN=[N+]=[N-])ccc21` is 109
